# test_method_notes: Binding affinity to Escherichia coli DNA polymerase 3 subunit beta expressed in Escherichia coli BL21 by ITC assay
pKd: −log10 of the molar value. Where a SMILES comes first, the peptide text is derived from it. [ ]: non-standard residue; d: D form. Phe(3,4-Cl2) = N[C@@H](Cc1ccc(Cl)c(Cl)c1)C(=O)O; Phe(4-Cl) = N[C@@H](Cc1ccc(Cl)cc1)C(=O)O; Cha = N[C@@H](CC1CCCCC1)C(=O)O
Measured pKd, listed per entry for reference.

compound: CC(=O)N[C@@H](CCC(N)=O)C(=O)N[C@@H](CC(C)C)C(=O)N[C@@H](CC(=O)O)C(=O)N[C@@H](CC(C)C)C(=O)N[C@@H](Cc1ccccc1)C(=O)O
pKd: 6.21
//
compound: CC(=O)N[C@@H](CCC(N)=O)C(=O)N[C@@H](CC1CCCCC1)C(=O)N[C@@H](CC(=O)O)C(=O)N[C@@H](CC(C)C)C(=O)N[C@@H](Cc1ccc(Cl)c(Cl)c1)C(=O)O (Ac-Q[Cha]DL[Phe(3,4-Cl2)]-OH)
pKd: 7.26
//
compound: CC(=O)N[C@@H](CCC(N)=O)C(=O)N[C@@H](CC1CCCCC1)C(=O)N[C@@H](CC(=O)O)C(=O)N[C@@H](CC(C)C)C(=O)N[C@@H](Cc1ccc(Cl)cc1)C(=O)O (Ac-Q[Cha]DL[Phe(4-Cl)]-OH)
pKd: 7.05

###

# test_method_notes: Inhibition of Escherichia coli DNA polymerase 3 subunit beta-dependent elongation activity expressed in Escherichia coli BL21 after 2 hrs by competitive biochemical assay
Where a SMILES comes first, the peptide text is derived from it. [ ]: non-standard residue; d: D form. Phe(3,4-Cl2) = N[C@@H](Cc1ccc(Cl)c(Cl)c1)C(=O)O; Phe(4-Br) = N[C@@H](Cc1ccc(Br)cc1)C(=O)O; Phe(4-Cl) = N[C@@H](Cc1ccc(Cl)cc1)C(=O)O; Phe(4-Me) = Cc1ccc(C[C@H](N)C(=O)O)cc1; Cha = N[C@@H](CC1CCCCC1)C(=O)O
parameter: IC50 (nM)

compound: CC(=O)N[C@@H](CCC(N)=O)C(=O)N[C@@H](CC1CCCCC1)C(=O)N[C@@H](CC(=O)O)C(=O)N[C@@H](CC(C)C)C(=O)N[C@@H](Cc1ccccc1)C(=O)O (Ac-Q[Cha]DLF-OH)
parameter: IC50
value: 2800
//
compound: CC(=O)N[C@@H](CCC(N)=O)C(=O)N[C@@H](CC1CCCCC1)C(=O)N[C@@H](CC(=O)O)C(=O)N[C@@H](CC(C)C)C(=O)N[C@@H](Cc1ccc(Cl)c(Cl)c1)C(=O)O (Ac-Q[Cha]DL[Phe(3,4-Cl2)]-OH)
parameter: IC50
value: 125
//
compound: CC(=O)N[C@@H](CCC(N)=O)C(=O)N[C@@H](CC(C)C)C(=O)N[C@@H](CC(=O)O)C(=O)N[C@@H](CC(C)C)C(=O)N[C@@H](Cc1ccccc1)C(=O)O
parameter: IC50
value: 4500
//
compound: CC(=O)N[C@@H](CCC(N)=O)C(=O)N[C@@H](CC1CCCCC1)C(=O)N[C@@H](CC(=O)O)C(=O)N[C@@H](CC(C)C)C(=O)N[C@@H](Cc1ccc(C)cc1)C(=O)O (Ac-Q[Cha]DL[Phe(4-Me)]-OH)
parameter: IC50
value: 2000
//
compound: CC(=O)N[C@@H](CCC(N)=O)C(=O)N[C@@H](CC1CCCCC1)C(=O)N[C@@H](CC(=O)O)C(=O)N[C@@H](CC(C)C)C(=O)N[C@@H](Cc1ccc(Br)cc1)C(=O)O (Ac-Q[Cha]DL[Phe(4-Br)]-OH)
parameter: IC50
value: 250
//
compound: CC(=O)N[C@@H](CCC(N)=O)C(=O)N[C@@H](CC1CCCCC1)C(=O)N[C@@H](CC(=O)O)C(=O)N[C@@H](CC(C)C)C(=O)N[C@@H](Cc1ccc(Cl)cc1)C(=O)O (Ac-Q[Cha]DL[Phe(4-Cl)]-OH)
parameter: IC50
value: 300
